Target: Fyn (UniProt P06241)
Sequence (P06241 whole entry, looked up): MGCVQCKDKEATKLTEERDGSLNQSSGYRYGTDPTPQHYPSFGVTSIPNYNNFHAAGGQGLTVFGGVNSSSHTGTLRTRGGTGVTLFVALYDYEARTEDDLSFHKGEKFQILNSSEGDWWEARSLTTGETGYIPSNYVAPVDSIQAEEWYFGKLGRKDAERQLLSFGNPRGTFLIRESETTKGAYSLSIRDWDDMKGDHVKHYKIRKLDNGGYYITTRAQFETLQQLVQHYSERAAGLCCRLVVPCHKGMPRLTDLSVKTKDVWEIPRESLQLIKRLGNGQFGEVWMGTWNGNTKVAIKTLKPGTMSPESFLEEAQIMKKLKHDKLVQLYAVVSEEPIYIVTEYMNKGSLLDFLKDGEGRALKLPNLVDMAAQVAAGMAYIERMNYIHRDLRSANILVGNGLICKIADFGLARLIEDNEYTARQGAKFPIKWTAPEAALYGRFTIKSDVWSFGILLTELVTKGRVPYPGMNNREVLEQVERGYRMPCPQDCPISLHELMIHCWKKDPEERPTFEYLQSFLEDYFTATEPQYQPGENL
Assay: phosphorylation enrichment, bacterial display (enrichment ratio); higher = better substrate or ligand; peptides without Tyr show the background;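 note: 11-residue human phosphosite peptides and single-mutation variants displayed on the E. coli surface, counted by deep sequencing, each peptide's frequency after selection divided by its frequency in the unselected input library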;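 note: frequency after pTyr selection over input frequency; kinase dosed for 20-30% of maximal phosphorylation in three min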
Answer each item with its documented phosphorylation enrichment.
No unit in the answer, only the number.

**Q:** Using the record for KIDAKYKKKIK [WDR19_Y1230_E1235K] , state its measured phosphorylation enrichment.
**A:** 0.305

**Q:** Identify measured phosphorylation enrichment associated with ERLWVYGMSSS [F8_Y1728_D1727V]
**A:** 0.565

**Q:** Give the reported value of phosphorylation enrichment for this record: ASLLPYFPAIM [IPO4_Y518]
**A:** 0.544

###

Assign phosphorylation enrichment to each entry below.
Tested on: c-Src
Assay: phosphorylation enrichment, bacterial display (enrichment ratio); higher = better substrate or ligand; peptides without Tyr show the background

**Q:** For c-Src, give the measured phosphorylation enrichment of the entry ISHVAYCVLGK [TRRAP_Y892_R893C]
**A:** 0.523

**Q:** Please report the measured phosphorylation enrichment for DSDTDYGSGYP [RNASEH2A_Y206_L202S] tested on c-Src.
**A:** 0.689

**Q:** Write phosphorylation enrichment of TLLPDYEDEEE [ZNF830_Y159_S154T] ; system used: c-Src
**A:** 0.62

**Q:** Please report phosphorylation enrichment with c-Src for item SGETKYNPTEA [NBEAL2_Y2748_E2747K] .
**A:** 0.537

**Q:** Output reported phosphorylation enrichment of the sequence AQMAMYFWEMS [TRPM4_Y577_G582S] on c-Src.
**A:** 2.52

**Q:** Lab note: record phosphorylation enrichment of TIQDAYMHITS [ADCY10_Y318_A313T] tested on c-Src.
**A:** 0.451

###

For each of the sequences below, state its phosphorylation enrichment.
System: c-Abl (mouse)
Experiment: phosphorylation enrichment, bacterial display (enrichment ratio); higher = better substrate or ligand; peptides without Tyr show the background
Give the figure only, with no unit attached.

**Q:** Please indicate recorded phosphorylation enrichment of LRGVIYVILRK [PMP22_Y153_S149R] measured with c-Abl (mouse).
**A:** 0.778

**Q:** Identify measured phosphorylation enrichment obtained with c-Abl (mouse) for WCSNDYLGMSQ [ALAS2_Y199_R204Q] .
**A:** 0.782

**Q:** Give measured phosphorylation enrichment for ETKKQYDSFTY [TMED3_Y85] (c-Abl (mouse)).
**A:** 0.639

**Q:** Tell me phosphorylation enrichment of KSPDSYQKILP [ATM_Y1415_L1420P] when tested on c-Abl (mouse).
**A:** 0.431

**Q:** Report value: phosphorylation enrichment, system: c-Abl (mouse), sequence: QELRRYLESGV [MICA_Y194_K196E]
**A:** 0.616

**Q:** GET phosphorylation enrichment where system = c-Abl (mouse) and item = CEHFSYFGMKA [SLC15A2_Y60_R57H_YF]
**A:** 0.605

**Q:** Consider the sequence YRIGPYQPNVP [MATR3_Y784] tested on c-Abl (mouse); state its phosphorylation enrichment.
**A:** 0.501

**Q:** Look up and report measured phosphorylation enrichment (c-Abl (mouse)) for the following sequence: HFPDVYAWEQL [ALX3_Y181_R183W_YF]
**A:** 0.632

**Q:** Enter measured phosphorylation enrichment, system c-Abl (mouse), for the sequence shown: PLDGEYSTLQI [TP53_Y327_F328S]
**A:** 1.33

**Q:** Quote c-Abl (mouse) phosphorylation enrichment for entry YSNVLYRPRGA [TMIGD2_Y197] .
**A:** 0.692

**Q:** Report measured phosphorylation enrichment on c-Abl (mouse); entry: PSPTRYSLSPS [RANBP2_Y785]
**A:** 1.5

**Q:** # return phosphorylation enrichment of VFLGAYDRFLP [SLC22A5_Y486_YF] (system: c-Abl (mouse))
**A:** 0.782

**Q:** Give phosphorylation enrichment for VGIMLYGVDSR [PKD1_Y3143] tested on c-Abl (mouse).
**A:** 0.77

**Q:** Report phosphorylation enrichment on c-Abl (mouse) for this entry: KEDSAYGSQSV [NFKB2_Y868]
**A:** 0.911

**Q:** Fill in: phosphorylation enrichment on c-Abl (mouse), entry RTLIRYAKLGN [BEST1_Y131_N133K]
**A:** 1.07

**Q:** Give phosphorylation enrichment for GVIRHYVVCST [BTK_Y334] tested on c-Abl (mouse).
**A:** 0.87

**Q:** # lookup: c-Abl (mouse) phosphorylation enrichment, key = SLAARYYNWVC [FLT4_Y1230_S1235C]
**A:** 0.957

**Q:** Specify the recorded phosphorylation enrichment for MSRDVYSTDYY [NTRK2_Y702] , system: c-Abl (mouse).
**A:** 0.558

**Q:** Quote c-Abl (mouse) phosphorylation enrichment for entry HLSPEYKQNEI [GJB1_Y243_R238H] .
**A:** 0.716

**Q:** Report phosphorylation enrichment from c-Abl (mouse) testing of NLTLKYPIEHG [ACTA1_Y71_I66N]
**A:** 0.717

**Q:** Quote phosphorylation enrichment with test system c-Abl (mouse) for HSVVQYVGGVM [FGGY_Y136_L134V]
**A:** 0.61

**Q:** Answer with phosphorylation enrichment of KPNMNYDKLSR [FLI1_Y332] measured for c-Abl (mouse).
**A:** 0.459

**Q:** Please report phosphorylation enrichment with c-Abl (mouse) for item HLITAYRAHGF [PDHA1_Y118] .
**A:** 0.309

**Q:** Answer with phosphorylation enrichment of ERQIRYLNHQL [CEP152_Y268] measured for c-Abl (mouse).
**A:** 0.523

**Q:** Report measured phosphorylation enrichment on c-Abl (mouse); entry: HLATEYVFSDF [PANX1_Y10_Q5H]
**A:** 0.863

**Q:** Check c-Abl (mouse) data and give phosphorylation enrichment for TQPSPYAVYLF [RPGRIP1_Y823_R827L] .
**A:** 9.15

**Q:** Fetch value of phosphorylation enrichment on c-Abl (mouse) for SIKGKYVTALF [KCNH2_Y611_D609G_YF] .
**A:** 0.617

**Q:** Fill in phosphorylation enrichment for PELIDYGKLRK [ACTN1_Y193] tested with c-Abl (mouse).
**A:** 0.537

**Q:** Specify phosphorylation enrichment for PSQRCYVYYYS [PTEN_Y174_R173C] , system c-Abl (mouse).
**A:** 1.77

**Q:** Give phosphorylation enrichment; test system c-Abl (mouse); sequence QRDSSYYWEIE [RAF1_Y340]
**A:** 0.744

**Q:** With c-Abl (mouse) as the test system, provide measured phosphorylation enrichment for this sequence: TRSFDYMEGED [FGF7_Y58_G62E_YF]
**A:** 0.754

**Q:** Give phosphorylation enrichment only, for RLLVLYPWTQR [HBB_Y36_V35L] , using c-Abl (mouse) data.
**A:** 0.558

**Q:** Specify the recorded phosphorylation enrichment for TKDTFYKQRMF [GBA_Y451_P454R] , system: c-Abl (mouse).
**A:** 0.458

**Q:** Provide the reported phosphorylation enrichment (system: c-Abl (mouse)) for RLLRGYDQYAY [HLA-B_Y137_H137Y]
**A:** 0.659

**Q:** Look up and report phosphorylation enrichment, with c-Abl (mouse) as system, for NVTGHYIPPFH [PPA2_Y59_S61P]
**A:** 0.735

**Q:** Give phosphorylation enrichment; test system c-Abl (mouse); sequence VEDPEYAVTQL [STOML2_Y124]
**A:** 0.597

**Q:** // fetch phosphorylation enrichment for ESMLRYDVFGG [STOX1_Y607_E608D_YF] ; system: c-Abl (mouse)
**A:** 0.582

**Q:** Tell me phosphorylation enrichment of QAYSWYQHQRA [NDST1_Y714_R709Q] when tested on c-Abl (mouse).
**A:** 0.8

**Q:** Fill: phosphorylation enrichment (c-Abl (mouse)) for this sequence PLDGEYFTLHI [TP53_Y327_Q331H]
**A:** 1.93

**Q:** Write down the reported phosphorylation enrichment (system: c-Abl (mouse)) of LHRHAYPEQQQ [DPPA2_Y127_R131Q]
**A:** 0.716

**Q:** Enter recorded phosphorylation enrichment with c-Abl (mouse) for YRQNVYIPGSN [PCDHGA1_Y895] here.
**A:** 0.531

**Q:** With c-Abl (mouse) as the test system, provide measured phosphorylation enrichment for this sequence: HIILLYIFLKN [STXBP1_Y411_R406H]
**A:** 1.2

**Q:** Under c-Abl (mouse), report phosphorylation enrichment for YGSSSSGGAGG [RPA2_Y14_Y14S]
**A:** 0.317

**Q:** Retrieve phosphorylation enrichment on c-Abl (mouse); query SMEGLYSSAQD [CLIC5_Y111_T114A]
**A:** 1.05

**Q:** Consider the sequence LYDPDFMKVIL [CYP4A22_Y104_Y104F] tested on c-Abl (mouse); state its phosphorylation enrichment.
**A:** 1.8

**Q:** Under c-Abl (mouse), report phosphorylation enrichment for ILTLKYLIEHG [ACTG1_Y69_P70L]
**A:** 0.84

**Q:** Return reported phosphorylation enrichment for target or system c-Abl (mouse), item FTNRSYDLDYD [MYC_Y12_N11S] .
**A:** 0.645

**Q:** Answer with phosphorylation enrichment of NMHSTYAKLAA [SEC22B_Y193] measured for c-Abl (mouse).
**A:** 0.47

**Q:** Please indicate recorded phosphorylation enrichment of KKMEVYQSIAD [MYBPC3_Y548_L545M] measured with c-Abl (mouse).
**A:** 0.764

**Q:** Give phosphorylation enrichment for CYCSWYRGWAP [TIMP3_Y195_G190C] tested on c-Abl (mouse).
**A:** 0.882
